Attribution: patent US11731943B2

# assay.target: isolated recombinant JAK2 kinase domain (Homo sapiens (Human))
# Sequence (O60674 849-1124): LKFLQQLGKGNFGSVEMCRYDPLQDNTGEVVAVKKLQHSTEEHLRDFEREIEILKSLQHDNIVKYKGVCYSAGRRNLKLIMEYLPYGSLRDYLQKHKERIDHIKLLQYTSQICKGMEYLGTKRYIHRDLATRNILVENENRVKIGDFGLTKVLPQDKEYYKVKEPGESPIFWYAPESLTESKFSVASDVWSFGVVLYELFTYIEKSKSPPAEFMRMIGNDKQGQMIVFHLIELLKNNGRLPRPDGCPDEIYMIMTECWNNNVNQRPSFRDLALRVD
# assay.remarks: JAK2 enzyme assay (Caliper LabChip, Ki)
The reader will find reported pKi values listed item by item below.
For clarity, pKi is expressed as the negative log10 of concentration in mol/L.

Example cases with answers are listed next.
molecule | result
N#CCC1(n2cc(C(N)=O)c(NC(=O)C3CC3)n2)CCN(Cc2ccc(-c3cccc(C(F)(F)F)c3)cc2)CC1 | 6.68
N#CCC1(n2cc(C(N)=O)c(NC(=O)C3CC3)n2)CCN(Cc2ccc3c(c2)CSC3)CC1 | 6.76
N#CCC1(n2cc(C(N)=O)c(NC(=O)C3CC3)n2)CCN(Cc2ccc(C3=CCCC3)cc2)CC1F (stereo not shown) | 9.09
N#CCC1(n2cc(C(N)=O)c(NC(=O)C3CC3)n2)CCN(Cc2cccc(NS(=O)(=O)c3ccccc3)c2)CC1 | 7.23

# context switch: different molecule, same pKi
Find the recorded pKi belonging to N#CCC1(n2cc(C(N)=O)c(NC(=O)C3CC3)n2)CCN(Cc2ccc(-c3ccccc3)nc2F)CC1 and report it. 8.85
